experimental_protocol: gradient 5% acetonitrile 3 min, to 50% in 2 min, to 85% in 15 min, held 3 min, 100 µL/min
study_conditions: column: Zorbax Extend-C18 2.1 x 50 mm; eluents: water / acetonitrile, 0.1% formic acid
recorded_metric: RP-LC retention time (s)

> print(dat)
                                    compound       recorded.metric  reported.measurement
 1                   CC(C)=CCC/C(C)=C\C(N)=O  RP-LC retention time                   816
 2  Cc1cc2[nH]c(C(=O)Nc3cc(F)c(F)cc3F)c(CN(C)C)c2s1  RP-LC retention time                   664
 3   NC(=O)C1CCN(C(=O)Cc2cc(-c3ccco3)on2)CC1  RP-LC retention time                   580
 4  CC(C)c1ccc(S(=O)(=O)N2CCc3c(c(CN4CCCC4)nn3C)C2)cc1  RP-LC retention time                   721
 5  Cc1ccc(NC(=O)Cn2c(C)nc3onc(C)c3c2=O)cc1Cl  RP-LC retention time                   885
 6  CCC(=O)N1CCc2sc(C(=O)N3CCN(c4cccc(Cl)c4)CC3)cc2C1  RP-LC retention time                   900
 7  COC(=O)c1cc2c(=O)n(-c3cccc(Cl)c3)ccc2nc1C  RP-LC retention time                   878
 8         O=C(NCc1ccc(F)cc1)c1cn2c(n1)COCC2  RP-LC retention time                   631
 9  Cc1ccc(F)c(NC(=O)c2cnc(-c3ccc(F)cc3)nc2-c2ccncc2)c1  RP-LC retention time                   954
10  COC(=O)c1ccccc1Nc1c(-c2ccc(N(C)C)cc2)nc2cnccn12  RP-LC retention time                   921

P. COc1cc(CC(=O)N2CCc3cc(-c4cc(C)no4)ccc32)cc(OC)c1
Q. CCc1nnc(-c2coc(S(=O)(=O)N3CCC(N4CCCCC4)CC3)c2)o1
Incoming: // task: argmin of RP-LC retention time over [ P , Q ] Your answer should be the label attached to the chosen record.
Outgoing: Q
(Q: 607 s, P: 951 s)

1. CCCc1nc2cccnc2n1C1CCN(C(=O)NCc2ccccc2)C1 (stereo not given)
2. CCOCC1CCC2(CCN(S(=O)(=O)c3ccc(C)c(F)c3)CC2)O1 (stereo not given)
Incoming: Form field 'greater RP-LC retention time' accepts 1 or 2 ; which applies? Your answer should be the label attached to the chosen record.
Outgoing: 2
(2: 1090 s, 1: 603 s)

I. CCCOc1nccnc1NC1CCN(C(=O)c2ccn(CC)n2)CC1
II. Cc1ccc(NS(=O)(=O)c2cc(-c3cc(C(F)(F)F)on3)sc2C)cc1Cl
Incoming: Form field 'greater RP-LC retention time' accepts I or II ; which applies? Your answer should be the label attached to the chosen record.
Outgoing: II
(II: 1190 s, I: 722 s)

---

experimental_protocol: gradient 5% acetonitrile 3 min, to 50% in 2 min, to 85% in 15 min, held 3 min, 100 µL/min
study_conditions: column: Zorbax Extend-C18 2.1 x 50 mm; eluents: water / acetonitrile, 0.1% formic acid
recorded_metric: RP-LC retention time (s)

> print(dat)
                                   compound  reported.measurement
1            CNC(=O)c1sc(Nc2ccc(Cl)cn2)nc1C                   687
2  COc1ccc(C(=O)N2CCCn3cc(-c4ccccc4F)nc32)cn1                   587
3    Cc1noc(C)c1CN1CCN(C(=O)Cc2ccccc2Cl)CC1                   563
4  COCC(=O)N(C1CCOCC1)C1CCN(S(=O)(=O)c2cccc(C)c2)CC1                   762
5  CCc1nnc(NC(=O)C2CC(=O)N(CCc3c[nH]c4ccc(Cl)cc34)C2)s1 (stereo not given)                   715
